- ASSAY TARGET: recombinant human αvβ8 integrin (human) (UniProt P06756)
- Sequence (P06756 31-992 limits assumed, form in doubt, chain 1 of 2): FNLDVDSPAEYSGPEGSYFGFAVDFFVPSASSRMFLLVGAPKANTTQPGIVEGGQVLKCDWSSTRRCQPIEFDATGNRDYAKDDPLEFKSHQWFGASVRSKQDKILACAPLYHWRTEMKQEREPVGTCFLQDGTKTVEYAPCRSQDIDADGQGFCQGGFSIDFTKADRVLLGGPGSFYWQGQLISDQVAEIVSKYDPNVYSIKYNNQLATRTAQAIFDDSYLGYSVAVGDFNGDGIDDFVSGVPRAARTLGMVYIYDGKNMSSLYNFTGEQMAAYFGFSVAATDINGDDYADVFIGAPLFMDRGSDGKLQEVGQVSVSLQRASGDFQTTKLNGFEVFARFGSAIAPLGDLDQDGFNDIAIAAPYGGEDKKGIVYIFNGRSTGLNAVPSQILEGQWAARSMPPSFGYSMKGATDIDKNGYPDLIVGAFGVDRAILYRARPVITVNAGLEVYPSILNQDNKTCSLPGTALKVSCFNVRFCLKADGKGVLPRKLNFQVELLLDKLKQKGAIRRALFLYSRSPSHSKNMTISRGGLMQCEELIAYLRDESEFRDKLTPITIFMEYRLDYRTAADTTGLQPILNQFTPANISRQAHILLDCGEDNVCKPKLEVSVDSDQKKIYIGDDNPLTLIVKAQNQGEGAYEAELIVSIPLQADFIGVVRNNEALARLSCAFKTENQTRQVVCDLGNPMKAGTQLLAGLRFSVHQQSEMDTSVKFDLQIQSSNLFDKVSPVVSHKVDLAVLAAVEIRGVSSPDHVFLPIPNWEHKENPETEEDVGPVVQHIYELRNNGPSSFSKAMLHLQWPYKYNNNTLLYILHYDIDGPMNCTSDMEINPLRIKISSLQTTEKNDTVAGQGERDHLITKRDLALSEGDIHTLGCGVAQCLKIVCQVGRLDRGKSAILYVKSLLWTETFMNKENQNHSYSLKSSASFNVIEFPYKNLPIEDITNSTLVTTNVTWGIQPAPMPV
- Sequence (chain, as listed by the source limits assumed, form in doubt, chain 2 of 2): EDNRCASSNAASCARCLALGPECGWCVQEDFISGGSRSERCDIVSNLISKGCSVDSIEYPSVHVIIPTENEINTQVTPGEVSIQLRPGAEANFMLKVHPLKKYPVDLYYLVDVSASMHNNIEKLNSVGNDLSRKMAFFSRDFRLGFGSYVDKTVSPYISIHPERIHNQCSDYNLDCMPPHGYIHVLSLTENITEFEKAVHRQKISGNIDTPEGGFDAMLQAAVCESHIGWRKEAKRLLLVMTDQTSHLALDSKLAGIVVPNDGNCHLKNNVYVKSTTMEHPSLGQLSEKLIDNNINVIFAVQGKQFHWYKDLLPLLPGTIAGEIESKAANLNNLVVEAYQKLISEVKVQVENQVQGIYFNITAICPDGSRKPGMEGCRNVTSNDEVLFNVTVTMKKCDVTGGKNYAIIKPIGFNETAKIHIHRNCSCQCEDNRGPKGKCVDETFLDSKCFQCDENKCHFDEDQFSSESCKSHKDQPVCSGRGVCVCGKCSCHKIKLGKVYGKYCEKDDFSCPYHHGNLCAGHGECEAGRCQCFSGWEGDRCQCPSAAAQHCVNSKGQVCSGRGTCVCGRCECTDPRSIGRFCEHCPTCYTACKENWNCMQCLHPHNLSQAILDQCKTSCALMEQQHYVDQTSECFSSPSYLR
- ASSAY REMARKS: ELISA (DELFIA counts) on human αvβ8, Fab titration
MEASURED ATTRIBUTE: EC50 (read off the curve) (nM)
Answers are plain numbers, in nM.

Specify EC50 (read off the curve) for ADWA11 VH05/VK01 Fab with D61E in VH (Fab, V domains shown) VH: EVQLVESGGGLVQPGGSLRLSCAASGFNIKDYYMNWVRQAPGKGLEWVGWIDPDNGNTIYEPKFQGRFTISADTSKNSAYLQMNSLRAEDTAVYYCARRLLMDYWGQGTLVTVSS VL: DIQMTQSPSSLSASVGDRVTITCRSTKSLLHFNGNTYLFWYQQKPGKAPKRLIYYMSNLASGVPSRFSGSGSGTDFTLTISSLQPEDFATYYCMQSLEYPFTFGQGTKVEIK and stop.
1
